Just for reference, patent US20250339569A1 is where these values come from.

target: human carbonic anhydrase 9 (CAIX) (human, UniProt Q16790 38-459); experiment: FACS competition on HT-29 cells, competitor tracer 3BP-4149; category B = pIC50 7.1-8.0
Starred links: 1 amine or outer side, 2 acyl side, 3 side chain; linkers in the order of their positions; H or OH if unused. Positions of bridges follow the written chain, without caps; N, C: chain ends. Non-standard residues stand in square brackets, D forms with d. Primed or numbered codes have the meaning given here. *: point of attachment. af3(ac-asp) = lower case: 3-amino-D-phenylalanine, ring amine acylated with N-acetyl-D-aspartic acid, CC(=O)N[C@H](CC(=O)[*:3])C(=O)Nc1cccc(C[C@@H](N[*:1])C(=O)[*:2])c1; APAc″ = 2-(4-(amino)piperidin-1-yl)acetic acid, NC1CCN(CC(=O)*)CC1; DOTA = O=C(O)CN1CCN(CC(=O)O)CCN(CC(=O)*)CCN(CC(=O)O)CC1; mXylylene = c1cc(C[*:1])cc(C[*:2])c1; NOAzOMe = not defined here
Below: a set of entries, each annotated with reported pIC50.

{DOTA-APAc″}-VYCE[dP]E(NOAzOMe)WLTWSC-NH2 (linker 3-12 via mXylylene; reading uncertain) [3BP-4339] = 7.1 to 8 pic50
{DOTA-APAc″}-VYCE[dP]E(N4BzlSO2Me)WLTWSC-NH2 (linker 3-12 via mXylylene) [3BP-4333] = 7.1 to 8 pic50

Here is the next item to consider.
Q: # lookup: pIC50 of {DOTA-APAc″}-VYCE[dP]D[af3(ac-asp)]LTWSC-NH2 (linker 3-12 via mXylylene; not fully specified) [3BP-4364]
Ans: 7.1 to 8 pic50
